Entries annotated with measured DC50
- tgt: UniProtKB P51532
- Sequence (P51532 whole entry): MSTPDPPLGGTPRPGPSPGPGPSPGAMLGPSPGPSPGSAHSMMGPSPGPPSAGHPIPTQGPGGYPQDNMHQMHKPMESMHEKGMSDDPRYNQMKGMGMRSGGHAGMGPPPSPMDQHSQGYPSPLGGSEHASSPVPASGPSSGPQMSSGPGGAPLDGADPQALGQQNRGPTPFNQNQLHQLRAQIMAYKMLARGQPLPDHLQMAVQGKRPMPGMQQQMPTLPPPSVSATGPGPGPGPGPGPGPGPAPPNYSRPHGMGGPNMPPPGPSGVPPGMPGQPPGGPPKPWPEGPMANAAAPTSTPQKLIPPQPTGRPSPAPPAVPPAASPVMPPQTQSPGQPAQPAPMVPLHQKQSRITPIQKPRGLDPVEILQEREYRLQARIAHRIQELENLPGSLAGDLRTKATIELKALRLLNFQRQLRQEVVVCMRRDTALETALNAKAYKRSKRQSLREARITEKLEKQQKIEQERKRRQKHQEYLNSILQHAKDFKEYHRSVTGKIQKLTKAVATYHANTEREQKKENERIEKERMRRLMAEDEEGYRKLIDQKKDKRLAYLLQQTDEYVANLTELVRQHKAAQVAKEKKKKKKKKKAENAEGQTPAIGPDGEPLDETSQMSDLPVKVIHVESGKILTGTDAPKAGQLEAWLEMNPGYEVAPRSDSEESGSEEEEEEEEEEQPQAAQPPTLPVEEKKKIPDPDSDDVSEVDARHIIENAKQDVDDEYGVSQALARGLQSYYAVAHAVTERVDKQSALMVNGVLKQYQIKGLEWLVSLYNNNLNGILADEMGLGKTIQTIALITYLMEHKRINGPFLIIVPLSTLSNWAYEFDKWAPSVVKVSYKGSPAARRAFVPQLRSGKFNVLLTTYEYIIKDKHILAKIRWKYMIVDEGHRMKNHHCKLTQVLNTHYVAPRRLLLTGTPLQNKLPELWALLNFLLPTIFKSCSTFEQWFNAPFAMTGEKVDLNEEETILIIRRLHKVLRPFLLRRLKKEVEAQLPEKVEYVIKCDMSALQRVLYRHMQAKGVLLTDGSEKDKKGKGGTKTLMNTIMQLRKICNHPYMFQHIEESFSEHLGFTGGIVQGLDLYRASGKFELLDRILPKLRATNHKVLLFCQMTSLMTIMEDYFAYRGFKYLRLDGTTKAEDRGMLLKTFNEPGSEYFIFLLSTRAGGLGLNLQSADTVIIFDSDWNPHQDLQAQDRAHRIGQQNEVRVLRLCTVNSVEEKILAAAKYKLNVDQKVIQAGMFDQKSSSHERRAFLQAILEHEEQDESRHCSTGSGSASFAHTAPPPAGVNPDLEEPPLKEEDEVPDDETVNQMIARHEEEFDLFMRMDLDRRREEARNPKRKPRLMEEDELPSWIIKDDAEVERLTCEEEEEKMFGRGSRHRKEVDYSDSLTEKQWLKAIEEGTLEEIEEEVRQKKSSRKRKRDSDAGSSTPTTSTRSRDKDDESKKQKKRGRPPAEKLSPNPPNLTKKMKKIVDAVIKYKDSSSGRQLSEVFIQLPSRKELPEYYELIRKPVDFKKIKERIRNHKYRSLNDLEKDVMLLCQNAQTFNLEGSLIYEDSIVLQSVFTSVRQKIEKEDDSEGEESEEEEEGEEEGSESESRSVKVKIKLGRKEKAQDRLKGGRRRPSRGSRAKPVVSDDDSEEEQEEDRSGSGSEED
- measurement_description: HiBiT assay for protein degradation, Hela SMARCA4-HiBiT cells (A series)
- Type: cell-based
- Design: fuse HiBiT to the carboxy terminus of SMARCA2 (Promega CS302365) or SMARCA4 (Promega CS3023225); host or cells: HeLa (CRISPR/Cas9 HiBiT knock-in)
- particulars: Hela SMARCA4-HiBiT cells, 24 hours treatment; read-out: SMARC A4 Hela HiBit DC50

| given_smiles | quantity_kind | recorded_measurement |
| --- | --- | --- |
| Cc1ncsc1-c1ccc([C@@H](NC(=O)[C@@H]2C[C@@H](O)CN2C(=O)[C@@H](n2cc(C3CC3)nn2)C(C)(C)C)C(=O)N2CCC(c3ccc4c(c3)-n3c(nc(=O)c5c(Br)cccc53)C43CCCCC3)CC2)cc1 | DC50 | < 10 nM |

Q: Indicate the recorded DC50 value for this compound: `Cc1ncsc1-c1ccc([C@H](C)NC(=O)[C@@H]2C[C@@H](O)CN2C(=O)[C@@H](n2cc(CCN3CCC(c4ccc5c(c4)C4(CCCCC4)c4nc(=O)c6c(Br)cccc6n4-5)CC3)nn2)C(C)(C)C)cc1`
Ans: < 100 nM
